- Tested on: SNB-19 CNS
- test description: NCI tumour cell line growth inhibition, 48 h
Below, each of the compounds is paired with its reported TGI value.
measured endpoint: TGI

compound=COC(=O)c1ccc(Nc2nc3nc[nH]c3c(=O)[nH]2)cc1 endpoint_value="> 100 µM"
compound=N#C[C@H](c1nc2ccccc2s1)c1nc2ccccc2nc1Cl endpoint_value="> 100 µM"
compound="CC(SC(=O)Nc1ccc(N=Nc2ccccc2)cc1)C(=O)O (configuration not stated)" endpoint_value="> 100 µM"
compound=O=C1NC(=NCCCc2ccccc2)S/C1=C\c1ccc2ncccc2c1 endpoint_value="> 22.4 µM"
compound=COc1cc2c(=O)[nH]c3cc([N+](=O)[O-])ccc3c2cc1[N+](=O)[O-] endpoint_value="> 100 µM"
compound=O=C(NNc1ccccc1)/C(=C/c1ccc2c(c1)OCO2)NC(=O)c1ccccc1 endpoint_value="> 100 µM"
compound=CC1(C)C(=O)C(C)(C)C1=S endpoint_value="> 100 µM"
compound="CC(=O)C1=C(O)C2C3c4c[nH]c5cccc(c45)CC3C(C)(C)N2C1=O (configuration not stated)" endpoint_value="> 100 µM"
compound="NC(=S)c1c(N)n(C2OC(CO)C(O)C2O)c2ncnc(N)c12 (configuration not stated)" endpoint_value="> 100 µM"
compound=Cc1c(/C=N/N(C)C)oc2c1cc(O)c1ncccc12 endpoint_value="> 100 µM"
compound=Cc1ccc(NC(=O)C(=O)CC(=O)c2sc(Nc3c(C)cccc3C)nc2C)cc1C endpoint_value="> 100 µM"
compound="COc1ccc(/C=C/C2=NN(c3cccc(S(=O)(=O)O)c3)C3(C2)SCC(=O)N3c2nc3ccccc3s2)cc1 (configuration not stated)" endpoint_value="> 100 µM"
compound="CN(C)/N=C1\\CC(c2ccccc2)C(C#N)(C#N)C1(C#N)C#N (configuration not stated)" endpoint_value="54.1 µM"
compound="NC(=O)NC1C(C(N)=O)N(Cc2ccccc2)C(=O)N1Cc1ccccc1 (configuration not stated)" endpoint_value="> 100 µM"
compound="C=C1C(=O)OC2/C=C(/C)C(OC(C)=O)C/C=C(\\C)C(OC(=O)C3(C)OC3C)C(O)C12 (configuration not stated)" endpoint_value="> 100 µM"
compound=O=[N+]([O-])c1ccc(O)c(/C=N/NC(=S)N2CCCCC2)c1 endpoint_value="> 53.6 µM"
compound="CC1CC(=O)N(N(C)C)C(C#N)(C#N)C1(C#N)C#N (configuration not stated)" endpoint_value="> 61.8 µM"

====

- Test system: A498 renal
- test description: NCI tumour cell line growth inhibition, 48 h
measured endpoint: TGI

compound=C#CCOc1ccc2ncnc(Nc3ccc(NC(=O)C=C)cc3)c2c1 endpoint_value="> 100 µM"
compound=CCn1c(SCC(=O)NNC(=S)NC)nc2ccccc2c1=O endpoint_value="> 100 µM"
compound=C[C@H](C/C=C/C(C)(C)O)[C@H]1CC[C@@]2(C)[C@@H]3CC[C@H]4C(C)(C)[C@@H](O)CC[C@@]45C[C@@]35CC[C@]12C endpoint_value="40.8 µM"
compound=Brc1ccc2ns[s+]c2c1 endpoint_value="> 100 µM"
compound=COC(OC)[C@@H]1OC[C@@H](O)[C@@H]1n1cnc2c(N)ncnc21 endpoint_value="> 100 µM"
compound=CCN(CC)c1ccc2cc(C(=O)Nc3ccccn3)c(=N)oc2c1 endpoint_value="> 100 µM"
compound=Cn1nc(-c2ccccc2)c2c(/C=C/c3ccccc3)onc2c1=O endpoint_value="> 100 µM"
compound="CC1(C)CC(=O)C2=C(C1)OC1=C(CC(C)(C)CC1=O)C2c1ccccc1[N+](=O)[O-] (stereo not given)" endpoint_value="> 100 µM"
compound=Oc1[nH]c2ccccc2c1/C=c1/cc2c(c(-c3ccc(F)cc3)n1)=Nc1ccccc1-2 endpoint_value="1.85 µM"
compound=COc1cc2c3c(n(C)c(=O)c2cc1OC)-c1ccc(C#N)cc1C3=O endpoint_value="> 100 µM"

====

- Test system: SNB-75 CNS
- test description: NCI tumour cell line growth inhibition, 48 h
Documented GI50 across a set of molecules
measured endpoint: GI50

molecule=COc1nnc2ccc(N3CCC(c4ccc(OCCN5CCN(C)C(=O)[C@H]5C)cc4)CC3)nn12 endpoint_value="0.0144 µM"
molecule=CO[C@H]1C[C@@H]2CC[C@@H](C)[C@@](O)(O2)C(=O)C(=O)N2CCCC[C@H]2C(=O)O[C@H]([C@H](C)C[C@@H]2CC[C@@H](OCCO)[C@H](OC)C2)CC(=O)[C@H](C)C=C(C)[C@@H](O)[C@@H](OC)C(=O)[C@H](C)C[C@H](C)/C=C/C=C/C=C1C endpoint_value="< 0.01 µM"
molecule=COC(=O)c1ccc(NC(=O)Oc2ccc(N(CCCl)CCCl)cc2)cc1 endpoint_value="6.16 µM"
molecule=CCn1c(-c2nonc2N)nc2cncc(C(=O)N3CC[C@H](N)C3)c21 endpoint_value="0.319 µM"
molecule="O=[N+]([O-])c1cccc(C2CC(c3ccccc3)=Nc3ccccc3S2)c1 (centres undefined)" endpoint_value="9.53 µM"
molecule=COc1cccc(/C=C2\COc3ccc(-c4ccccc4)cc3C2=O)c1 endpoint_value="1.99 µM"
molecule="c1ccc2c3c([nH]c2c1)C(c1ccc(C2NCCc4c2[nH]c2ccccc42)cc1)NCC3 (centres undefined)" endpoint_value="0.691 µM"
molecule=CC(=O)c1c(C)[nH]c(-c2nc3ccc(N4CCN(C)CC4)cc3[nH]2)c1-c1ccccc1 endpoint_value="0.0416 µM"
molecule=COc1ccc2c(OCc3nnc4ccc(-c5ccccc5)nn34)ccnc2c1 endpoint_value="> 100 µM"

====

- Tested on: SK-MEL-2 melanoma
- test description: NCI tumour cell line growth inhibition, 48 h
measured endpoint: TGI (µM)

compound=Oc1[nH]c2ccccc2c1/C=c1/cc2c(c(-c3ccc(F)cc3)n1)=Nc1ccccc1-2 assay_target="SK-MEL-2 melanoma" measured_endpoint=TGI qualifier_operator== endpoint_value=1.34
compound=COc1ccccc1C[C@@H]1OC2(C=CC(=O)C=C2)O[C@H]1Cc1ccccc1OC assay_target="SK-MEL-2 melanoma" measured_endpoint=TGI qualifier_operator== endpoint_value=18.4
compound=O=C(CCc1ccccc1)ON1C(=S)C(c2ccccc2)(c2ccccc2)N=C1Sc1ccccc1 assay_target="SK-MEL-2 melanoma" measured_endpoint=TGI qualifier_operator=> endpoint_value=100
compound=N#C[C@H](c1nc2ccccc2s1)c1nc2ccccc2nc1Cl assay_target="SK-MEL-2 melanoma" measured_endpoint=TGI qualifier_operator=> endpoint_value=100
compound=C=CC(=O)N1CC2(CC(n3nc(-c4ccc5c(cnn5C)c4)c(-c4c(Cl)c(C)cc5[nH]ncc45)c3C)C2)C1 assay_target="SK-MEL-2 melanoma" measured_endpoint=TGI qualifier_operator== endpoint_value=3.63
compound="CC1(c2ccc(Cl)cc2)C2C(=O)NC(=O)C1C(=O)NC2=O (centres undefined)" assay_target="SK-MEL-2 melanoma" measured_endpoint=TGI qualifier_operator=> endpoint_value=100
compound=Cn1c(N/N=C/c2ccccc2)nc(-c2ccc([N+](=O)[O-])cc2)c(C#N)c1=O assay_target="SK-MEL-2 melanoma" measured_endpoint=TGI qualifier_operator=> endpoint_value=100
compound=COc1cccc(/C=C2\COc3ccc(-c4ccccc4)cc3C2=O)c1 assay_target="SK-MEL-2 melanoma" measured_endpoint=TGI qualifier_operator== endpoint_value=5.27
compound="CC(=O)OC1COC(n2c(=S)n(-c3ccccc3)c(=O)c3ccccc32)C(OC(C)=O)C1OC(C)=O (centres undefined)" assay_target="SK-MEL-2 melanoma" measured_endpoint=TGI qualifier_operator=> endpoint_value=100

====

- System: U251 CNS
- test description: NCI tumour cell line growth inhibition, 48 h
measured endpoint: TGI

line_notation=Nc1c(Cl)ncnc1NCCCNc1ncnc(Cl)c1N endpoint_value="> 100 µM"
line_notation=Cn1nc(-c2ccccc2)c2c(/C=C/c3ccccc3)onc2c1=O endpoint_value="> 100 µM"
line_notation=CCCCCCCCCCCCCC[C@@H](O)[C@H]1CC[C@H]([C@H]2CC[C@H]([C@H](O)CCCCCC[C@@H](O)CC3=C[C@H](C)OC3=O)O2)O1 endpoint_value="> 25 µM"

====

In this section, each of the molecules is paired with its reported TGI.
- System: HT29 colon
- test description: NCI tumour cell line growth inhibition, 48 h
measured endpoint: TGI

molecule="CN(C)c1cc[n+](-c2nc(/N=C(\\[O-])C(F)(F)F)nc3c2ncn3C2CC(O)C(CO)O2)cc1 (stereo not given)" measured_endpoint=TGI endpoint_value="> 100 µM"
molecule=NNC(=O)c1cc(=O)[nH][nH]1 measured_endpoint=TGI endpoint_value="> 100 µM"
molecule=CC1=C(C(=O)Nc2cc(F)c(F)cc2F)C(c2ccc([N+](=O)[O-])cc2)C(C(=O)Nc2cc(F)c(F)cc2F)=C(C)N1 measured_endpoint=TGI endpoint_value="> 100 µM"
molecule=COc1ccc(/C=N/n2cnc3[nH]c(C)c(Cc4ccccc4)c3c2=N)cc1 measured_endpoint=TGI endpoint_value="> 100 µM"
molecule=Cc1ccc(NC(=O)C(=O)CC(=O)c2sc(Nc3c(C)cccc3C)nc2C)cc1C measured_endpoint=TGI endpoint_value="> 100 µM"
